Test system: OVCAR-5 ovarian
RUN_DESCRIPTION: NCI tumour cell line growth inhibition, 48 h
For each entry below, report its TGI value.

CC(C)(C)OC(=O)NCC(=O)NC1CC=CCC1NC(=O)CNC(=O)OC(C)(C)C (stereo unspecified) ... > 100 µM
CC[C@H]1CC(=O)c2c(cc3c(c2O)C(=O)c2ccccc2C3=O)[C@@]1(C#N)C(=O)OC(C)(C)C ... 46.5 µM
COc1ccc(-c2cc(C(=O)N3N=C(c4ccc(N)cc4)CC3c3ccc(Cl)cc3)c3ccccc3n2)cc1 (stereo unspecified) ... > 100 µM
Cc1cccc(C)c1NC(=O)CCC(=O)NNc1nnc(C)n1N ... > 100 µM
CCC(=O)OCC1OC(n2cnc3c(=S)nc(N)[nH]c32)C(OC(=O)CC)C1OC(=O)CC (stereo unspecified) ... > 100 µM

API: the following record is the query input.
input: Using the record for CC(=O)O[C@H]1CC[C@@]2(C)C(=CC[C@@H]3C2CC[C@]2(C)Nc4c(cnn4-c4ccccc4)CC32)C1 (stereo partly specified) , report its TGI.
output: > 100 µM

---

For each entry below, report its TGI value.
Test system: EKVX NSCLC
RUN_DESCRIPTION: NCI tumour cell line growth inhibition, 48 h

Record excerpt, results attached:
CCCCN(CC)C(=O)C1=C(C)NC(C)=C(C(=O)N(CC)CCCC)C1 ... > 100 µM
COC(=O)C1=C(OC(=O)/C(=C/c2ccccc2)c2ccc([N+](=O)[O-])cc2)C(C(=O)OC)[C@@]2(O)[C@@H](C(=O)OC)[C@H](C)C[C@@H]1[C@@H]2C(=O)OC (stereo partly specified) ... > 100 µM
CN(C)C1C(CO)OC(n2cnc3c(N)ncnc32)C1O (stereo unspecified) ... > 100 µM

Your task in this section: give TGI for each listed record.
1. COc1cc(C2CC(c3ccc(SC)cc3)=NN2C(C)=O)cc(OC)c1OC (stereo unspecified)
2. CC(C#N)NCc1ccc(C(C)NC(C)C#N)cc1 (stereo unspecified)
3. COc1cc(/C=C2\CCC(C)(CN(C)C)C2=O)cc(OC)c1OC (stereo unspecified)

output:
["> 100 µM", "> 100 µM", "> 88.3 µM"]

---

Test system: PC-3 prostate
RUN_DESCRIPTION: NCI tumour cell line growth inhibition, 48 h
For each entry below, report its TGI value.

O=C1c2ccccc2C(=O)N1[C@@H](Cc1ccccc1)C(=O)n1cccc1CO ... > 100 µM

Your task in this section: give TGI for each listed record.
1. CN(C)/C=N/S(=O)(=O)c1nn2c(C=O)c(-c3ccccc3)nc2s1
2. CCOC(=O)c1ccc(N=C2S/C(=C\C(=S)Nc3ccccc3)N(c3ccccc3)C2=Nc2ccc(C(=O)OCC)cc2)cc1
3. O=c1c(Nc2ccccc2)cn(CCOc2ccccc2)c(=O)n1CCOc1ccccc1

output:
1: > 89 µM; 2: > 100 µM; 3: > 100 µM
